Catalogue of IC50 readings, one per entry.
- measurement.target: AKR1C3 (Homo sapiens (Human), UniProt P42330)
- Sequence (P42330 whole entry): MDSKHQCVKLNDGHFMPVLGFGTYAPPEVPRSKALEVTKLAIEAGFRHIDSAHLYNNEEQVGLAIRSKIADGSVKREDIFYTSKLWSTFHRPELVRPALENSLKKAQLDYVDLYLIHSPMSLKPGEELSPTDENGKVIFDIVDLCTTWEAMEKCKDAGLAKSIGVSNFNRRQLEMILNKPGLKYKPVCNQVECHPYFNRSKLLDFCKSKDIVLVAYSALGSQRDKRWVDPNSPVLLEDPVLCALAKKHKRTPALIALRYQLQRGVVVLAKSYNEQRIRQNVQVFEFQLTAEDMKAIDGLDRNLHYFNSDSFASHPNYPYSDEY
- assay: AKR1C3 enzyme assay (coumberone reduction, fluorescence)
- Format: biochemical
- particulars: recombinant human AKR1C3, coumberone 0.3 μM, NADPH 10 μM; read-out: AKR1C3 enzyme inhibition IC50

{"smiles.str": "C[C@H](O)CNC(=O)c1ccc2c(c1)CC[C@@H]1[C@@H]2CC[C@]2(C)C(c3cncc(F)c3)=CC[C@@H]12", "IC50": "6 nM"}
{"smiles.str": "CN(CCO)C(=O)c1ccc2c(c1)CC[C@@H]1[C@@H]2CC[C@]2(C)C(c3cncc(F)c3)=CC[C@@H]12", "IC50": "12 nM"}
{"smiles.str": "CNC(=O)CCNC(=O)c1ccc2c(c1)CC[C@@H]1[C@@H]2CC[C@]2(C)C(c3cncc(F)c3)=CC[C@@H]12", "IC50": "5 nM"}
{"smiles.str": "CC(C)S(=O)(=O)CCNC(=O)c1ccc2c(c1)CC[C@@H]1[C@@H]2CC[C@]2(C)C(c3cncc(F)c3)=CC[C@@H]12", "IC50": "11 nM"}
{"smiles.str": "C[C@]12CC[C@@H]3c4ccc(C(=O)N5CCC[C@H]5c5nnn[nH]5)cc4CC[C@H]3[C@@H]1CC=C2c1cncc(F)c1", "IC50": "9 nM"}
{"smiles.str": "CN(CCCO)C(=O)c1ccc2c(c1)CC[C@@H]1[C@@H]2CC[C@]2(C)C(c3cncc(F)c3)=CC[C@@H]12", "IC50": "6 nM"}

* * *

- measurement.target: AKR1C3 (Homo sapiens (Human))
- assay: AKR1C3 enzyme assay (coumberone reduction, fluorescence)
- Assay type: biochemical
- particulars: recombinant human AKR1C3, coumberone 0.3 μM, NADPH 10 μM; read-out: AKR1C3 enzyme inhibition IC50
pIC50: −log10 of the molar value.

{"compound": "C[C@]12C[C@H](F)[C@@H]3c4ccc(C(N)=O)cc4CC[C@H]3[C@@H]1CC=C2c1cncc(F)c1", "pIC50": 7.57}
{"compound": "CN(CC(O)CO)C(=O)c1ccc2c(c1)CC[C@@H]1[C@@H]2CC[C@]2(C)C(c3cncc(F)c3)=CC[C@@H]12 (mixture of isomers)", "pIC50": 7.77}
{"compound": "CNS(=O)(=O)CCNC(=O)c1ccc2c(c1)CC[C@@H]1[C@@H]2CC[C@]2(C)C(c3cncc(C(F)(F)F)c3)=CC[C@@H]12", "pIC50": 7.32}

* * *

- measurement.target: AKR1C3 (Homo sapiens (Human), UniProt P42330)
- assay: AKR1C3 enzyme assay (coumberone reduction, fluorescence)
- Type: biochemical
- particulars: recombinant human AKR1C3, coumberone 0.3 μM, NADPH 10 μM; read-out: AKR1C3 enzyme inhibition IC50
pIC50: −log10 of the molar value.
// values below are reported pIC50
quantity.kind: pIC50

{"compound": "C[C@]12CC[C@@H]3c4ccc(C(=O)NCCS(N)(=O)=O)cc4CC[C@H]3[C@@H]1CC=C2c1cncnc1 [Example 47]", "quantity.kind": "pIC50", "measured.number": 6.92}
{"compound": "C[C@]12CC[C@@H]3c4ccc(C(=O)NCCc5nnn[nH]5)cc4CC[C@H]3[C@@H]1CC=C2c1cncc(F)c1 [Example 21]", "quantity.kind": "pIC50", "measured.number": 8.30}
{"compound": "C[C@@H](O)CNC(=O)c1ccc2c(c1)CC[C@@H]1[C@@H]2CC[C@]2(C)C(c3cncc(F)c3)=CC[C@@H]12 [Example 38]", "quantity.kind": "pIC50", "measured.number": 8.40}
